settings: in 2-butanone, 293.15 K
property name: solubility (mole fraction)

chem smiles: CCOc1ccccc1C(N)=O
endpoint value: 0.015

---

conditions: in 2-butanone, 328.15 K
property name: solubility (mole fraction)

chem smiles: CCOc1ccccc1C(N)=O
endpoint value: 0.0609

---

conditions: in 2-butanone, 313.15 K

chem smiles: CCOc1ccccc1C(N)=O
solubility (mole fraction): 0.0335

---

settings: in 1,4-dioxane, 308.15 K

chem smiles: CCOc1ccccc1C(N)=O
solubility (mole fraction): 0.0272

---

conditions: in 2-butanone, 298.15 K

chem smiles: CCOc1ccccc1C(N)=O
solubility (mole fraction): 0.0179

---

conditions: in acetone, 318.15 K
property name: solubility (mole fraction)

chem smiles: CCOc1ccccc1C(N)=O
endpoint value: 0.0424

---

conditions: in isopropanol, 298.15 K
property name: solubility (mole fraction)

chem smiles: CCOc1ccccc1C(N)=O
endpoint value: 0.00916

---

details: in methyl acetate, 318.15 K
property name: solubility (mole fraction)

chem smiles: CCOc1ccccc1C(N)=O
endpoint value: 0.0285

---

conditions: in sec-butanol, 323.15 K

chem smiles: CCOc1ccccc1C(N)=O
solubility (mole fraction): 0.0411

---

conditions: in n-butanol, 298.15 K

chem smiles: CCOc1ccccc1C(N)=O
solubility (mole fraction): 0.0122

---

settings: in n-butanol, 328.15 K

chem smiles: CCOc1ccccc1C(N)=O
solubility (mole fraction): 0.0498

---

conditions: in n-butanol, 318.15 K

chem smiles: CCOc1ccccc1C(N)=O
solubility (mole fraction): 0.0322

---

conditions: in methyl acetate, 288.15 K
property name: solubility (mole fraction)

chem smiles: CCOc1ccccc1C(N)=O
endpoint value: 0.00747

---

settings: in methyl acetate, 328.15 K

chem smiles: CCOc1ccccc1C(N)=O
solubility (mole fraction): 0.0428

---

conditions: in 2-butanone, 323.15 K

chem smiles: CCOc1ccccc1C(N)=O
solubility (mole fraction): 0.0501

---

conditions: in acetone, 293.15 K

chem smiles: CCOc1ccccc1C(N)=O
solubility (mole fraction): 0.0153

---

conditions: in n-propyl acetate, 293.15 K

chem smiles: CCOc1ccccc1C(N)=O
solubility (mole fraction): 0.0069

---

settings: in isopropanol, 288.15 K

chem smiles: CCOc1ccccc1C(N)=O
solubility (mole fraction): 0.00616

---

conditions: in 2-butanone, 303.15 K

chem smiles: CCOc1ccccc1C(N)=O
solubility (mole fraction): 0.0218

---

settings: in n-butyl acetate, 288.15 K

chem smiles: CCOc1ccccc1C(N)=O
solubility (mole fraction): 0.00505

---

conditions: in n-butanol, 313.15 K
property name: solubility (mole fraction)

chem smiles: CCOc1ccccc1C(N)=O
endpoint value: 0.0251

---

settings: in 1,4-dioxane, 303.15 K
property name: solubility (mole fraction)

chem smiles: CCOc1ccccc1C(N)=O
endpoint value: 0.0221

---

conditions: in 1,4-dioxane, 313.15 K

chem smiles: CCOc1ccccc1C(N)=O
solubility (mole fraction): 0.0341

---

conditions: in n-pentanol, 288.15 K
property name: solubility (mole fraction)

chem smiles: CCOc1ccccc1C(N)=O
endpoint value: 0.00858

---

details: in isopropanol, 293.15 K
property name: solubility (mole fraction)

chem smiles: CCOc1ccccc1C(N)=O
endpoint value: 0.00748

---

conditions: in 1,4-dioxane, 328.15 K
property name: solubility (mole fraction)

chem smiles: CCOc1ccccc1C(N)=O
endpoint value: 0.0653

Data provenance is BigSolDB 2.1.
